- Test system: VDR homodimer (NR concentration 270 nM)
- METHOD: PBM binding z-score (relative to random genomic background probes); higher = stronger binding; sequences stand for … in GC…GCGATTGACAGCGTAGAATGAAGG
Here the recorded PBM binding z-score is given for each entry.
I only need the number, thanks.

The examples below pair each entry with its known result.
# BIOPOLYMER_SEQUENCE, TESTED_TARGET, PBM binding z-score
data = [
    ("CCTATTAGTTGAGCATAAGGGCAACCGAAGCTCG", "VDR homodimer (NR concentration 270 nM)", 0.43),
    ("GGTACGAGGGCATTCGAGTTGATAGCATGGCGAT", "VDR homodimer (NR concentration 270 nM)", 3.68),
    ("CGAACTAGGTCAAGGACAGTGTATCTCCGCACGC", "VDR homodimer (NR concentration 270 nM)", 0.841),
    ("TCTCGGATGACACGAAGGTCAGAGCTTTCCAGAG", "VDR homodimer (NR concentration 270 nM)", 0.13),
]

We now examine a further sequence.
Qu. # get_value(readout='PBM binding z-score', item= ATATGTAGGATACATCCGGGTCATTCAGGCTATG )
Ans. 2.23

====

- Tested on: LXRa homodimer (NR concentration 270 nM)
- METHOD: PBM binding z-score (relative to random genomic background probes); higher = stronger binding; sequences stand for … in GC…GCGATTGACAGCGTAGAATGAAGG
Here the recorded PBM binding z-score is given for each entry.
I only need the number, thanks.

# BIOPOLYMER_SEQUENCE, PBM binding z-score
measured = [
    ("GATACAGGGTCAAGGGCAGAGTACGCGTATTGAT", 0.422),
]

Qu. # get_value(readout='PBM binding z-score', item= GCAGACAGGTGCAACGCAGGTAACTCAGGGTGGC )
Ans. -0.668

Qu. # get_value(readout='PBM binding z-score', item= CAACCTAGGTCAAAGGTCAAAGTCGAGCCAACCA )
Ans. 5.72

Qu. # get_value(readout='PBM binding z-score', item= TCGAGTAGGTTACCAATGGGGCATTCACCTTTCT )
Ans. -0.322

Qu. # get_value(readout='PBM binding z-score', item= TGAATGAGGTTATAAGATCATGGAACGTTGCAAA )
Ans. -0.175

Qu. # get_value(readout='PBM binding z-score', item= CCTTACGGGTCACGAGGTTATACCACGACGAGCG )
Ans. 0.42

====

- Test system: LXRb homodimer (NR concentration 270 nM)
- METHOD: PBM binding z-score (relative to random genomic background probes); higher = stronger binding; sequences stand for … in GC…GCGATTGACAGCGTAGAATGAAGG
# label = yes (1) if PBM binding z-score >= -0.2 else no (0)

// known answers, use as guide
# BIOPOLYMER_SEQUENCE, TESTED_TARGET, DISCRETE_LABEL
measured = [
    ("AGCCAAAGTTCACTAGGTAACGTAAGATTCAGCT", "LXRb homodimer (NR concentration 270 nM)", "yes (1)"),
    ("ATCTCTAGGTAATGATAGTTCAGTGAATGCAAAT", "LXRb homodimer (NR concentration 270 nM)", "yes (1)"),
    ("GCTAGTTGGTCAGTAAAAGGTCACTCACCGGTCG", "LXRb homodimer (NR concentration 270 nM)", "yes (1)"),
    ("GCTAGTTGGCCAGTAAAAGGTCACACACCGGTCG", "LXRb homodimer (NR concentration 270 nM)", "yes (1)"),
    ("CCGACTGGGCCATAAGGTTACCATAAGCCAGCCC", "LXRb homodimer (NR concentration 270 nM)", "no (0)"),
    ("CCGACTGGGGCAGATAGGTTACCATACCATCCGG", "LXRb homodimer (NR concentration 270 nM)", "no (0)"),
    ("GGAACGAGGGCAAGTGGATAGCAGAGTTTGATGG", "LXRb homodimer (NR concentration 270 nM)", "no (0)"),
    ("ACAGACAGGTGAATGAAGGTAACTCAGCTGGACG", "LXRb homodimer (NR concentration 270 nM)", "no (0)"),
    ("TCTTGTCGATCAATAGAGGTTAAGAAAGTGCGCT", "LXRb homodimer (NR concentration 270 nM)", "yes (1)"),
    ("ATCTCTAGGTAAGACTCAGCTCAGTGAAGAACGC", "LXRb homodimer (NR concentration 270 nM)", "yes (1)"),
]

Qu. Dear colleague, could you confirm whether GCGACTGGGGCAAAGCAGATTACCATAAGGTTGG has PBM binding z-score at or above -0.2?
Ans. no (0)

Qu. Dear colleague, could you confirm whether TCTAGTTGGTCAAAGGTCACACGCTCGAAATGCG has PBM binding z-score at or above -0.2?
Ans. yes (1)

Qu. Dear colleague, could you confirm whether AGAATGAGGTTATCAAGATCAGGGAATTGCGGTC has PBM binding z-score at or above -0.2?
Ans. yes (1)

Qu. Dear colleague, could you confirm whether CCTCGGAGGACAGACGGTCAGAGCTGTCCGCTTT has PBM binding z-score at or above -0.2?
Ans. no (0)

Qu. Dear colleague, could you confirm whether CCTACTGCGCCAAAAAGGTCATTGATGCCGATAA has PBM binding z-score at or above -0.2?
Ans. yes (1)

meta.source: the supplement of paper PMC6555819
